Experimental Target: Human complement C1s enzyme (Homo sapiens)
Construct: purified from human serum, Complement Technology, Inc; purchased Complement Technology, Inc; host or cells: human serum
Sequence (P09871 438-688 limits assumed): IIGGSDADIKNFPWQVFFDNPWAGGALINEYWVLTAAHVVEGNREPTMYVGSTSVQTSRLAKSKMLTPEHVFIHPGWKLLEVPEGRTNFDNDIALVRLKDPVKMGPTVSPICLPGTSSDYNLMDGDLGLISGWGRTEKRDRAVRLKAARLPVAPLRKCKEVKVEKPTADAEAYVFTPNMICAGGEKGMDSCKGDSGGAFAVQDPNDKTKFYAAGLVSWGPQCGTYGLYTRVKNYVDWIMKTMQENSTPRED
Sequence (P09871 16-437 partner limits assumed): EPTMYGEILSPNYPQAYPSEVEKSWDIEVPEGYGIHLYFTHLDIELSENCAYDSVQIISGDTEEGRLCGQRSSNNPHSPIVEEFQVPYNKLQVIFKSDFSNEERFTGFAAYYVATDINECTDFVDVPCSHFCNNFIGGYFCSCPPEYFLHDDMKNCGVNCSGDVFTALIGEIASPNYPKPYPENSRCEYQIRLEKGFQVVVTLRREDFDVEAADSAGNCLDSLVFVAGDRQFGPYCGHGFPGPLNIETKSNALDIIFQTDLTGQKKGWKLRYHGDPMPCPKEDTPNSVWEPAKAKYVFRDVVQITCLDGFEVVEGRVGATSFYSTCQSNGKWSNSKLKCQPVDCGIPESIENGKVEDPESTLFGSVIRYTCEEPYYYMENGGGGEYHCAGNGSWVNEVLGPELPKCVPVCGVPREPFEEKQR
Assay Notes: Human C1s Enzyme Assay
Type: biochemical
Condition: human C1s 1.16 nM, 5 min preincubation, substrate Z-L-Lys-SBzl 100 μM, A405; read-out: C1s Protease Activity
Item-by-item account of IC50
Value Type: IC50

• C[C@@H](NC(=O)[C@@H]1C[C@@H](c2ccccc2)CN1C(=O)CNC(=O)c1ccc(Oc2ccccc2)cc1)c1cc(C(=N)N)cs1 [Compound 246] = < 100 nM
• C[C@@H](Oc1ccc(C(=O)NCC(=O)N2[C@H]3C[C@@]3(C)C[C@H]2C(=O)NCc2cc(C(=N)N)cs2)cc1)c1ccccc1 [Compound 223] = < 100 nM
• C[C@H](Oc1ccc(C(=O)NCC(=O)N2[C@H]3C[C@@]3(C)C[C@H]2C(=O)NCc2cc(C(=N)N)cs2)cc1)c1ccccc1 [Compound 212] = < 100 nM
• N=C(N)c1csc([C@@H](NC(=O)[C@@H]2CC3(CN2C(=O)CNC(=O)CCCOc2ccccc2)OCCO3)C2CCCC2)c1 [Compound 179] = > 1000 nM
• N=C(N)c1csc(CNC(=O)[C@@H]2C[C@@H](C3CCCCC3)CN2C(=O)CNC(=O)c2ccc(Oc3ccccc3)cc2)c1 [Compound 61] = 100 to 1000 nM
• C[C@@]12C[C@@H]1N(C(=O)CNC(=O)c1ccc(Oc3ccc(C(F)(F)F)cn3)cc1)[C@H](C(=O)NCc1cc(C(=N)N)cs1)C2 [Compound 154] = < 100 nM
